- assay-text: Apparent volume of distribution in patient undergoing allogenic hematopoietic stem cell transplantation
- Assay type: ADME, organism-based
- stated-conditions: human, in vivo; read-out: Vc/F
parameter-measured: Vd/F (L)
Respond with the bare value in L.

Looking for the measured Vd/F of CC[C@@H]([C@H](C)O)n1ncn(-c2ccc(N3CCN(c4ccc(OC[C@@H]5CO[C@@](Cn6cncn6)(c6ccc(F)cc6F)C5)cc4)CC3)cc2)c1=O , can you help? 835

---

- assay-text: Apparent oral clearance in patient with diarrhea undergoing allogenic hematopoietic stem cell transplantation
- Type: ADME, organism-based
- stated-conditions: human, in vivo
parameter-measured: CL/F

Looking for the measured CL/F of CC[C@@H]([C@H](C)O)n1ncn(-c2ccc(N3CCN(c4ccc(OC[C@@H]5CO[C@@](Cn6cncn6)(c6ccc(F)cc6F)C5)cc4)CC3)cc2)c1=O , can you help? 1890 mL/min

---

- assay-text: Apparent volume of distribution in patient without diarrhea undergoing allogenic hematopoietic stem cell transplantation
- Format: ADME, organism-based
- stated-conditions: human, in vivo; read-out: Vc/F
parameter-measured: Vd/F (L)
Respond with the bare value in L.

Looking for the measured Vd/F of CC[C@@H]([C@H](C)O)n1ncn(-c2ccc(N3CCN(c4ccc(OC[C@@H]5CO[C@@](Cn6cncn6)(c6ccc(F)cc6F)C5)cc4)CC3)cc2)c1=O , can you help? 2250

---

- assay-text: Apparent volume of distribution in patient with diarrhea undergoing allogenic hematopoietic stem cell transplantation
- Type: ADME, organism-based
- stated-conditions: human, in vivo; read-out: Vc/F
parameter-measured: Vd/F (L)
Respond with the bare value in L.

Looking for the measured Vd/F of CC[C@@H]([C@H](C)O)n1ncn(-c2ccc(N3CCN(c4ccc(OC[C@@H]5CO[C@@](Cn6cncn6)(c6ccc(F)cc6F)C5)cc4)CC3)cc2)c1=O , can you help? 3800
